- system under test: T1, H/M BglI chimeric TNFα (human 1-36, murine 37-157) (human; mouse, UniProt P06804 81-235)
- T1 construct: Murine range is printed as 37-157 in human-aligned numbering; also called H/MBgl1; Hu/MBgl1
- T1 chain: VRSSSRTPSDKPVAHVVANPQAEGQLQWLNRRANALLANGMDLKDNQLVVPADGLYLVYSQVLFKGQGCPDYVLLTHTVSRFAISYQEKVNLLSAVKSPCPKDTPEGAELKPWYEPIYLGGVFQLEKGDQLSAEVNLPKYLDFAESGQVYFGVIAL
- procedure text: ELISA on chimeric/mutant TNFα
readout: binding result

Rabbit R014 (AB-TNFα-R014) (antibody, rabbit IgG1, V domains shown, Fully rabbit antibody, rabbit IgG1 heavy and kappa constant regions; cloned from well 7A4; also called RO14; Rabbit 014) VH: QSLEESGGRLVTPGTPLTLTCTVSGIDLSSNTMGWFRRAPGKGLEWIGIIISSGTTYYASWVKGRFTISKTSTTVDLKITRPTTEDTATYFCARGWYEFNLWGPGTLVTVSS VL: DVVMTQTPASVEAAVGGTVTIKCQASENIDILLAWYQQKVGQPPKLLIYRASKLASGAPSRFSGSGSGTEFTLTISDLECGDAATYYCQSNVGSTARSSYGNAFGGGTEVVVK | binds
291 (antibody, human IgG1, V domains shown, XENOMAX derived, recombinant human IgG1 kappa; also called 291 Ab; SC291) VH: QVQLVESGGSVVQPGRSLRLSCAASGFTFSNYGIHWVRQAPGKGLEWVAVIWSDGSNKYYADSVKGRFTISRDNSKNTLYLQMNSLRAEDTAVYYCARELPNSGSYSGYYYYYGMDVWGQGTTVTVSS VL: DIQMTQSPSSLSASVGDRVTITCRASQGIRNDLGWYQQKPGKAPKRLIYAASSLQSGVPSRFSGSGSGTEFTLTISSLQPEDFATYYCLQHCCYPLTFGGGTKVEIK | binds
299v2 (antibody, human IgG1, V domains shown, XENOMAX derived, recombinant human IgG1 kappa; also called 299v2Ab; SC299V2) VH: QVQLVESGGGVVQPGRSLRLSCAASGFTFSSYDMHWVRQAPGKGLEWVAVIWSDGSIKYYADSVKGRFTISRDNSKNTLYLQMNSLRAEDTAVYYCAREVESAMGGFYYNGMDVWGQGTTVTVSS VL: DIQMTQSPSSLSASVGDRVTITCRASQGIRIDLGWYQQKPGKAPKRLIYAASTLQSGVPSRFSGSGSGTEFIFTISSLQPEDFASYYCLQHKSYPLTFGGGTKVEIK | binds
313 (antibody, human IgG1, V domains shown, Recombinant human IgG1 kappa; also called 313 Ab; SC313) VH: QVQLVESGGGVVQPGRSLRLSCAASGFTFSNHDIHWVRQAPGKGLEWVAVIWSDGSNKYYADSVKGRFTISRDNSKNTLYLQMNSLRAEDTAVYYCAREKMATIKGYYYYGMDVWGQGTTVTVSS VL: DIQMTQSPSSLSASVGDRVTITCRASQGIRNDLGWYQQKPGKAPKRLIYAASSLESGVPSRFSGSGSGPEFTLTISSLQPEDFATYYCLQHNSYPLTFGGGTKVEIQ | binds
